B1: F1*; the commonest letter at each place (parent)
chain: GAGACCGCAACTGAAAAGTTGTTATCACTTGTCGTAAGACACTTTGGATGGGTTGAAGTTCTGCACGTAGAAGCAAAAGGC

- Variants of: B1
- assay_name: fraction ligated after 30 min (ligated reads / total reads); higher = more ligase activity
- measurement_parameters: with F1*sub RNA substrate (template-directed ligation), 42 °C
readout: fraction ligated
Output spec: single numeric token, no unit.

Solved entries (count: 10):
C28A C40G :: 0.824
G31A C42G :: 0.818
C28G C40A :: 0.791
T35C T45A :: 0.748
T30A T44A :: 0.855
T23G A57T :: 0.812
A48C A57G :: 0.762
T29C A39T :: 0.807
G31T :: 0.793
G31T G47T :: 0.022

Q. Find the recorded fraction ligated belonging to G34C T43G and report it.
A. 0.809
